- experimental_protocol: Gravimetric Vapour Sorption (GVS) with post-GVS XRPD
- Assay type: physicochemical
measurement_name: Hygroscopicity (GVS)

Would you kindly share the measured Hygroscopicity (GVS) for CC(=O)N[C@H]1[C@H]([C@H](O)[C@H](O)CO)OC(O)(C(=O)O)C[C@@H]1O (stereo partly shown) [Form 2, N-acetylneuraminic acid] ? slightly hygroscopic

Also CC(=O)N[C@H]1[C@H]([C@H](O)[C@H](O)CO)OC(O)(C(=O)O)C[C@@H]1O (stereo partly shown) [An embodiment of Form 2, N-acetylneuraminic acid] ? slightly hygroscopic

====

- experimental_protocol: Approximate solvent solubility screen (aliquot addition)
- Type: physicochemical
- assay_setup: 40 °C, organic solvent or mixture, thermodynamic from solid; solvent: N-Methyl-2-pyrrolidone
measurement_name: solubility

Which measured solubility value corresponds to CC(=O)N[C@H]1[C@H]([C@H](O)[C@H](O)CO)OC(O)(C(=O)O)C[C@@H]1O (stereo partly shown) ? > 72.1 mg/mL
